All figures here come from ChEMBL document CHEMBL4689842.

- System: HEK-293T
- assay explanation: Multiplex assay against HEK293T
- Format: toxicity, cell-based
- study conditions: human, 48 h, 1 µM, compound concentration 1 uM, replicate 1
Define the label as 1 (yes) when Total Cell Count is strictly less than 300 and as 0 (no) in all remaining cases.

Enquiry: Determine if CC(/C=C1\SC(=S)N(CCCC(=O)Nc2ccc(C(=O)O)c(O)c2)C1=O)=C\c1ccccc1 shows Total Cell Count strictly lower than 300.
Return: 0 (no)

Enquiry: Hello, is Total Cell Count of the following compound strictly smaller than 300? CCCCCNC(=N)N/N=C/c1c[nH]c2ccc(OC)cc12.O=C(O)/C=C\C(=O)O [TEGASEROD MALEATE]
Return: 1 (yes)

Enquiry: Could you please tell me whether Total Cell Count recorded for CC(C)c1cc(Nc2nc(N3CCC[C@H](N)C3)ncc2C(N)=O)cc(C(C)C)n1 is less than 300?
Return: 1 (yes)

Enquiry: Hello, I'm reviewing records and need to know if Total Cell Count of CCCc1cc(C)[nH]c(=O)c1CNC(=O)c1cc(-c2ccc(N3CCN(C(C)C)CC3)nc2)cc2c1cnn2C(C)C is below 300. Could you check?
Return: 1 (yes)

Enquiry: Criterion: Total Cell Count strictly below 300. Is it met by C=CC(=O)Nc1cc(-n2c(=O)ccc3cnc4ccc(-c5ccc(NS(C)(=O)=O)cc5)cc4c32)ccc1C ?
Return: 1 (yes)

Enquiry: Find out if reported Total Cell Count for C[C@@H](Oc1cc(-n2cnc3ccc(CN4CCN(C)CC4)cc32)sc1C(N)=O)c1ccccc1C(F)(F)F is less than 300
Return: 0 (no)

Enquiry: Would you kindly verify if Total Cell Count of Cc1c(P(=S)(c2ccccc2)c2ccccc2)n2ccccc2[n+]1C/C=C/c1ccccc1.[Br-] is strictly less than 300?
Return: 1 (yes)

Enquiry: For this compound, is Total Cell Count lower than 300? Cc1ccc(S(=O)(=O)NC2c3ccccc3Oc3ccccc32)cc1
Return: 0 (no)
